# procedureDetails: Cytotoxicity MTT assay, HepG2
# Type: cell-based
# conditionsUsed: human
readoutType: IC50

INSERT INTO assay_data (smi, endpointresult) VALUES
  ('NC[C@H]1O[C@@H](O[C@H]([C@H]2O[C@@H](n3ccc(=O)[nH]c3=O)[C@H](O)[C@@H]2O)[C@H](NCCCC(=O)NCc2ccc(N3CCC(Oc4ccc(C(F)(F)F)cc4)CC3)cc2)C(N)=O)[C@H](O)[C@@H]1O', '> 60 µM');

====

# procedureDetails: Water solubility
# Assay type: physicochemical
# conditionsUsed: water
readoutType: solubility (mg/mL)

INSERT INTO results (smi, readouttype, unitsofmeasure, endpointresult) VALUES
  ('NC[C@H]1O[C@@H](O[C@H]([C@H]2O[C@@H](n3ccc(=O)[nH]c3=O)[C@H](O)[C@@H]2O)[C@H](NCCCC(=O)NCc2ccc(N3CCC(Oc4ccc(C(F)(F)F)cc4)CC3)cc2)C(N)=O)[C@H](O)[C@@H]1O', 'solubility', 'mg/mL', 22);

====

Heads up, these compounds all have MIC values measured for C. difficile ATCC43596.
readoutType: MIC (µg/mL)

INSERT INTO assay_data (compound, readouttype, unitsofmeasure, endpointresult) VALUES
  ('CCCCCCCc1ccc(NC(=O)CCCN(C)[C@H](C(N)=O)[C@H](OC2O[C@H](CN)[C@@H](O)[C@H]2O)[C@H]2O[C@@H](n3ccc(=O)[nH]c3=O)C(O)[C@H]2O)cc1 (stereo partly shown)', 'MIC', 'µg/mL', 25),
  ('NC[C@H]1O[C@@H](O[C@H]([C@H]2O[C@@H](n3ccc(=O)[nH]c3=O)[C@H](O)[C@@H]2O)[C@H](NCCCC(=O)NCc2ccc(N3CCC(Oc4ccc(C(F)(F)F)cc4)CC3)cc2)C(N)=O)[C@H](O)[C@@H]1O', 'MIC', 'µg/mL', 3.25),
  ('CN(CCCC(=O)NCc1ccc(N2CCC(Oc3ccc(C(F)(F)F)cc3)CC2)cc1)[C@H](C(N)=O)[C@H](O[C@@H]1O[C@H](CN)[C@@H](O)[C@H]1O)[C@H]1O[C@@H](n2ccc(=O)[nH]c2=O)[C@H](O)C1O (stereo partly shown)', 'MIC', 'µg/mL', 50),
  ('CN[C@H](CC(C)C)C(=O)N[C@H]1C(=O)N[C@@H](CC(N)=O)C(=O)N[C@H]2C(=O)N[C@H]3C(=O)N[C@H](C(=O)N[C@H](C(=O)O)c4cc(O)cc(O)c4-c4cc3ccc4O)[C@H](O)c3ccc(c(Cl)c3)Oc3cc2cc(c3O[C@@H]2O[C@H](CO)[C@@H](O)[C@H](O)[C@H]2O[C@H]2C[C@](C)(N)[C@H](O)[C@H](C)O2)Oc2ccc(cc2Cl)[C@H]1O [vancomycin, reference compound]', 'MIC', 'µg/mL', 2.5);

====

# procedureDetails: Hemolysis, sheep blood
# Type: cell-based
# conditionsUsed: sheep, sheep blood
pIC50: −log10 of the molar value.
readoutType: pIC50

INSERT INTO results (compound, endpointresult) VALUES
  ('CCCCCCCc1ccc(NC(=O)CCCN[C@H](C(N)=O)[C@H](OC2O[C@H](CN)[C@@H](O)[C@H]2O)[C@H]2O[C@@H](n3ccc(=O)[nH]c3=O)C(O)[C@H]2O)cc1 (some centres unmarked)', 4.15),
  ('NC[C@H]1O[C@@H](O[C@H]([C@H]2O[C@@H](n3ccc(=O)[nH]c3=O)[C@H](O)[C@@H]2O)[C@H](NCCCC(=O)NCc2ccc(N3CCC(Oc4ccc(C(F)(F)F)cc4)CC3)cc2)C(N)=O)[C@H](O)[C@@H]1O', 3.69);
